Target: Protein Mdm4 (Homo sapiens) + E3 ubiquitin-protein ligase Mdm2 (Homo sapiens) (UniProt O15151+Q00987)
Sequence (O15151 whole entry, looked up): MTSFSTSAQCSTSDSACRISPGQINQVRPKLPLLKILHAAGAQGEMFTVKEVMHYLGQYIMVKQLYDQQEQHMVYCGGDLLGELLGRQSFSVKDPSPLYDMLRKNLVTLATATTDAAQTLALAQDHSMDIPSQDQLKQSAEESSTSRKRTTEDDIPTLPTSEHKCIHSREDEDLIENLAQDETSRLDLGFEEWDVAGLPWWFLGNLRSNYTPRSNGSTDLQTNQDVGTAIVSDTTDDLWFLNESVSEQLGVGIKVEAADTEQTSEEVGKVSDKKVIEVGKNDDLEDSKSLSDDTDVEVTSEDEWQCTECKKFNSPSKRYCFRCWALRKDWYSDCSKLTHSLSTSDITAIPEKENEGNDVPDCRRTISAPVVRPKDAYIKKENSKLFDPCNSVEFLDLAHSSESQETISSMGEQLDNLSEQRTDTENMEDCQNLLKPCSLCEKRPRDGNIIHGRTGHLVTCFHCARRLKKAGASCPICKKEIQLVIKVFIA
Sequence (Q00987 whole entry, looked up): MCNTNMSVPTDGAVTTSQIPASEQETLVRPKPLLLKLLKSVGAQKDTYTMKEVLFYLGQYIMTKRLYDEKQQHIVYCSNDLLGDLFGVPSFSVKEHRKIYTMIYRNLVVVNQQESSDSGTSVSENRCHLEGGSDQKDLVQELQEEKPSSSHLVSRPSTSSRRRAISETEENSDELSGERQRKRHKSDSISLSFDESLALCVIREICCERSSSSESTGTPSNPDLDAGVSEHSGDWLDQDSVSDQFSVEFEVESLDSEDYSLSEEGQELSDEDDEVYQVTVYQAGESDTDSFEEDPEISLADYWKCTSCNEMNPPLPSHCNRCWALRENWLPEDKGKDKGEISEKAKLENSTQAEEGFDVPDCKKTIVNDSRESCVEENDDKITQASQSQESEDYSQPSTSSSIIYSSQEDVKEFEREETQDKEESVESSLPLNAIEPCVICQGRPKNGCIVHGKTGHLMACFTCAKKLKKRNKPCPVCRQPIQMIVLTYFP
Experiment: inhibitors of human Mdm2-MdmX association, primary screen, cell-based, luminescence, split luciferase, SaOS-2, uHTS (AID 485346)
Details: SaOS-2 split-luciferase Mdm2/MdmX complementation, at 8 µM, hits give high values
The whole screen tested about 330,000 compounds, of which about 10,000 (3%) were called active. The sample holds actives, similar compounds and a random draw of the others, so the mix is not that of the screen.
Entries annotated with measured inhibition
Quick reminder: number only, in %, skip the unit.

Answered examples (3):
COc1ccc2cc1Oc1ccc(cc1)C[C@H]1c3cc(c(OC)cc3CCN1C)Oc1c(O)c(OC)cc3c1[C@H](C2)N(C)CC3 : 98.4
Cc1ccc(C2CC(=O)NC(SCC(=O)OCc3ccccc3)=C2C#N)o1 (configuration not stated) : 58.1
CC1Cc2ccccc2N1S(=O)(=O)c1cccc(C(=O)NCC(c2ccco2)N2CCCC2)c1 (configuration not stated) : 6.48

// recorded inhibition for `Cc1c(NS(=O)(=O)c2cc(C(=O)NCCc3ccc(F)cc3)cc(Cl)c2Cl)c(=O)n(-c2ccccc2)n1C` : 1.11

// recorded inhibition for `COc1ccc(/C=C/C(=O)Nc2ccc(C34CC5CC(CC(O)(C5)C3)C4)cc2)cc1OC` : 59.1

// recorded inhibition for `CN(C)c1ccc2c(=O)[nH][nH]c(=O)c2c1` : 4.05

// recorded inhibition for CNC(=O)NC(=O)C(OC(=O)c1cccc(S(=O)(=O)N2CCCCC2)c1)c1ccccc1 (configuration not stated) : -21.4

// recorded inhibition for `CN(C(=O)c1c(Cl)cnn1C)C12CC3CC(CC(C3)C1)C2` : 4.45

// recorded inhibition for `Cc1ccc(S(=O)(=O)N2C[C@@H]3CCCC[C@@H]3[C@@H](C)[C@H]2c2cn(Cc3ccccc3)c3ccc(F)cc23)cc1` : 30

// recorded inhibition for `CCOc1ccc2[nH]c(=O)c(CN(CCCO)S(=O)(=O)c3ccc(F)cc3)cc2c1` : -3.41

// recorded inhibition for `O=C(CCSCCc1ccccn1)Nc1nccs1` : -7.99

// recorded inhibition for CC1Cc2ccccc2N1S(=O)(=O)c1cccc(C(=O)OCC(=O)N2CCOCC2)c1 (configuration not stated) : 9.37

Sourced from PubChem BioAssay AID485346
